# System: OVCAR-5 ovarian
# protocol_details: NCI-60 one-dose screen, 48 h (100 = growth as untreated, 0 = no growth, -100 = all killed)
# assay_conditions: 10 µM unless noted
This is part of a sample that, as a whole, favours compounds with a hit. Of some 83,000 tested, about 20% had one in any assay. Active and inactive are the calls of the source. How the source made its calls: active means growth percent below 10; inactive means the rest.
parameter: growth

Reference set (4 entries):
{"line_notation": "CN1CCN(c2ccc(-c3cc4c(Nc5ccc(F)c(Cl)c5)ncnn4c3)cn2)CC1", "growth": "97.8% (inactive)"}
{"line_notation": "C=CCNc1ccc2c3c(cccc13)C(=O)N(N1C(=O)c3cccc4cccc(c34)C1=O)C2=O", "growth": "101% (inactive)"}
{"line_notation": "CCOC(=O)Nc1ccc(C(=O)/C=C/c2ccccc2)cc1", "growth": "102% (inactive)"}
{"line_notation": "C[C@]12CC[C@@H]3c4cc(OC(F)F)c(OS(N)(=O)=O)cc4CC[C@H]3[C@@H]1CC[C@@H]2OS(N)(=O)=O", "growth": "94.9% (inactive)"}

Ask: For OVCAR-5 ovarian, provide growth of N/C(=N\c1nc2ccccc2s1)NC(=O)Nc1cccc2ccccc12 please.
Reply: 41.1% (inactive)

* * *

Below is a list of entries, each paired with its recorded growth value.
# Test system: SF-539 CNS
# protocol_details: NCI-60 one-dose screen, 48 h (100 = growth as untreated, 0 = no growth, -100 = all killed)
# assay_conditions: 10 µM unless noted
This is part of a sample that, as a whole, favours compounds with a hit. Of some 83,000 tested, about 20% had one in any assay.
Just the number please, in %, no unit attached.

{"compound": "O=c1[nH]c2c(ccc3cnccc32)c2c1CCC2", "assay_result": -59.7}

Ask: Query (compound): COc1ccc(-c2[nH]c3ccc(OC)cc3c2/C=C(\C#N)S(=O)(=O)c2ccccc2)cc1 ; field requested: growth
Reply: -37.8

Ask: Next compound up: CCOC(=O)c1sc2ncc(-c3ccc(C)cc3)n2c1C
Reply: 93.8

Ask: Next compound up: COC1=C(C)C(=O)c2c(c(CCCl)c3n2CCC3O)C1=O (stereo not given)
Reply: -28.8

Ask: Next compound up: O=C(Oc1cccc2ccccc12)Oc1cccc2ccccc12
Reply: 101

* * *

Below is a list of entries, each paired with its recorded growth value.
# System: IGROV1 ovarian
# protocol_details: NCI-60 one-dose screen, 48 h (100 = growth as untreated, 0 = no growth, -100 = all killed)
# assay_conditions: 10 µM unless noted
This is part of a sample that, as a whole, favours compounds with a hit. Of some 83,000 tested, about 20% had one in any assay.
Just the number please, in %, no unit attached.

Reference set (6 entries):
{"line_notation": "Nc1ccc(Sc2ccc([N+](=O)[O-])c3nonc23)cc1", "value_units": "%", "growth": 97}
{"line_notation": "Oc1ccc(Cl)cc1Cc1cc(Cl)cc(Cl)c1O", "value_units": "%", "growth": 66}
{"line_notation": "Cn1cc(C(=O)c2nc(-c3cn(C)c4ccc(F)cc34)no2)c2cc(F)ccc21", "value_units": "%", "growth": 77.8}
{"line_notation": "Nc1ccccc1-c1cc2c(c3c1[nH]c1ccccc13)CCCCC2", "value_units": "%", "growth": 97}
{"line_notation": "COc1ccc(C(=O)COC(=O)[C@H](C[Se][Se]C[C@H](NC(=O)c2ccc(Br)cc2F)C(=O)OCC(=O)c2ccc(OC)cc2)NC(=O)c2ccc(Br)cc2F)cc1", "value_units": "%", "growth": -86.1}
{"line_notation": "COc1ccc2sc3c(NCCCNCCO)nc4ccccc4c3c(=O)c2c1", "value_units": "%", "growth": 45.9}

Ask: Query (molecule): C/C(=N/NC(N)=S)c1sc(Nc2cccc(Cl)c2)nc1C ; field requested: growth
Reply: 86

Ask: Next molecule up: CC(=O)c1ccc(Nc2nc(C(C)=O)c(C)s2)cc1
Reply: 98.2

Ask: Next molecule up: C=C1C(=O)O[C@H]2[C@H]1CC/C(COC(=O)NCCOCCOCC(=O)Nc1ccc(OC)c(C(N)=O)c1O)=C\CC[C@@]1(C)O[C@@H]21
Reply: 24.7

* * *

# Test system: NCI-H23 lung
# protocol_details: NCI-60 one-dose screen, 48 h
# assay_conditions: 10 µM unless noted
This is part of a sample that, as a whole, favours compounds with a hit. Of some 83,000 tested, about 20% had one in any assay. The source made the active and inactive calls. The calls were made as follows: active = growth percent below 10; inactive = the rest.
Please answer using one outcome listed in active, inactive

{"molecule": "O=C(COc1ccc(/C=C2\\Cc3ccc(Cl)cc3C2=O)cc1)Nc1nc2ccccc2s1", "target_under_test": "NCI-H23 lung", "class_name": "inactive"}
{"molecule": "Cc1ccc(C(=O)N/N=C/c2cccc(Oc3ccccc3)c2)cn1", "target_under_test": "NCI-H23 lung", "class_name": "inactive"}
{"molecule": "CCn1cnc2c1c(=O)[nH]c(=O)n2CC1CCC(CNS(=O)(=O)c2ccc(OC3CCOCC3)c(F)c2)CC1 (stereo unspecified)", "target_under_test": "NCI-H23 lung", "class_name": "inactive"}
{"molecule": "CCc1cccc2c3c(sc12)C(c1ccc(F)cc1)C(C#N)=C(N)O3 (stereo unspecified)", "target_under_test": "NCI-H23 lung", "class_name": "inactive"}

Ask: Call for entry Cc1cccc2c3c(sc12)C(c1ccc(F)cc1)C(C#N)=C(N)O3 (stereo unspecified) :
Reply: inactive

Ask: Next molecule up: Fc1cc(-c2nnc3n2NC(=Nc2ccc(Cl)cc2)CS3)c(Cl)cc1Cl
Reply: inactive

Ask: Next molecule up: Nc1ccccc1-c1cc2c(c3c1[nH]c1ccccc13)CCCCC2
Reply: inactive

Ask: Next molecule up: COc1ccc2c(c1)c(-c1ccc(-c3cn(C)c4ccc(OC)cc34)o1)cn2C
Reply: inactive

Ask: Next molecule up: COc1ccc(NC2=C(Br)C(=O)C(C)=C(C)C2=O)cc1
Reply: inactive

Ask: Next molecule up: c1ccc(OCc2nnc(-c3ccc(Oc4ccccc4)cc3)o2)cc1
Reply: inactive

Ask: Next molecule up: CCN1C(=O)N(CC)C2Nn3c(s/c(=C\c4ccc([N+](=O)[O-])cc4)c3=O)=NC21 (stereo unspecified)
Reply: inactive

Ask: Next molecule up: O=C(/C=C/c1cccc2ccccc12)c1ccc(NC(=O)c2ccccc2CN2C(=O)c3ccccc3C2=O)cc1
Reply: inactive

Ask: Next molecule up: O=C(Nc1ccc(F)cc1F)c1cc(F)ccc1O
Reply: active

* * *

# System: NCI-H522 lung
# protocol_details: NCI-60 one-dose screen, 48 h (100 = growth as untreated, 0 = no growth, -100 = all killed)
# assay_conditions: 10 µM unless noted
The panel holds about 83,000 compounds, 20% with a hit somewhere; the sample as a whole holds those more often.
Please note: growth exactly at 40% is false. Only values below 40% get true.

Observe how each entry below is paired with its result.
{"compound": "CCOC(=O)/C(C#N)=C\\Nc1ccc2ncnc(Nc3ccc(Cl)cc3Cl)c2c1", "class_name": "false"}
{"compound": "COc1ccc(-c2cc(-c3cc(OC)c(OC)c(OC)c3)nc(N3CCOCC3)c2C#N)cc1", "class_name": "false"}
{"compound": "C=C1CC[C@H](C(C)C)[C@@H]2[C@H]1[C@H]1CC(=C)[C@@H](O)CC[C@@](C)(O)[C@@H]2O1", "class_name": "false"}

Ask: Field: below-cutoff. Rule: recorded growth strictly less than 40%. Subject: c1ccc2cc(C[n+]3ccn(CCCCCCn4cc[n+](Cc5ccc6ccccc6c5)c4)c3)ccc2c1
Reply: true

Ask: Next compound up: Nc1ccc(Sc2ccc([N+](=O)[O-])c3nonc23)cc1
Reply: true

Ask: Next compound up: CCCCCCNC(=O)Oc1ccc(/C(=C(\C)c2ccc(Cl)cc2)c2ccc(OCCN(CC)CC)cc2)cc1
Reply: false

Ask: Next compound up: O=C(N/N=C/[C@H](O)[C@@H](O)[C@@H](O)[C@H](O)CO)c1ccc(NC(=O)c2cccnc2)cc1
Reply: false

Ask: Next compound up: O=C(Oc1cccc2ccccc12)Oc1cccc2ccccc12
Reply: false

* * *

# System: SK-OV-3 ovarian
# protocol_details: NCI-60 one-dose screen, 48 h (100 = growth as untreated, 0 = no growth, -100 = all killed)
# assay_conditions: 10 µM unless noted
About 83,000 compounds went through this panel and 20% of them were active in at least one assay; those are over-represented in the sample as a whole.
parameter: growth (%)
Just the number please, in %, no unit attached.

{"line_notation": "Cc1oc2nc[nH]c(=O)c2c1C(=O)/C=C/c1ccc(Br)cc1", "value_units": "%", "growth": 31.5}
{"line_notation": "C=C1C(=O)O[C@H]2[C@H]1CC/C(COC(=O)CCC(=O)NCCOCCOCC(=O)Nc1ccc(OC)c(C(N)=O)c1O)=C\\CC[C@@]1(C)O[C@@H]21", "value_units": "%", "growth": 96.7}
{"line_notation": "CCOC(=O)CCN(C(=O)Nc1ccccc1)C1CCCCC1", "value_units": "%", "growth": 112}
{"line_notation": "NCCCNc1nc2ccccc2c2c(=O)c3cc(C(F)(F)F)ccc3sc12", "value_units": "%", "growth": 84.3}

# input for lookup
Ask: Query (compound): N/C(=N\c1nc2ccccc2s1)NC(=O)Nc1cccc2ccccc12 ; field requested: growth
Reply: 40.4
